The measured values listed here are drawn from PubChem BioAssay.

- testDescription: ovarian cancer cell viability with rucaparib, profiling panel, oncology-focused library, rucaparib conditional (AID 1508598)
- testParameters: patient-derived ovarian cancer cells, CellTiter-Glo viability, 144 h; at 1.25 µM; OCI-P5x cells; with rucaparib 20 µM; stronger effect = lower value; 100% = cells with rucaparib alone
Consider the following compounds and their measured viability readings.
Form entry: value (%) — number only.

viability recorded for this compound, CCN(CC)CCNC(=O)c1c(C)[nH]c(/C=C2\C(=O)Nc3ccc(F)cc32)c1C , is 89.1

viability recorded for this compound, Cc1nc(Nc2ncc(C(=O)Nc3c(C)cccc3Cl)s2)cc(N2CCN(CCO)CC2)n1 , is 16.6

viability recorded for this compound, Cc1ccc(-n2nc(C(C)(C)C)cc2NC(=O)Nc2ccc(OCCN3CCOCC3)c3ccccc23)cc1 , is 96.1

viability recorded for this compound, FC(F)c1nc2ccccc2n1-c1nc(N2CCOCC2)nc(N2CCOCC2)n1 , is 42

viability recorded for this compound, CC/C(=C(\c1ccccc1)c1ccc(OCCN(C)C)cc1)c1ccccc1 , is 100

Consider the record given below.
viability recorded for this compound, COc1cc(Nc2c(C#N)cnc3cc(OCCCN4CCN(C)CC4)c(OC)cc23)c(Cl)cc1Cl , is 57.8

====

- testDescription: inhibitors of mitochondrial cytochrome c release, biochemical, purified mitochondria (AID 1603);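 also: mouse liver mitochondria challenged with calcium chloride; signal normalized to the plate average as 100%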
- testParameters: stronger effect = lower value
Values of cytochrome c release ratio strictly less than 1 map to 1 (yes), and values of at least 1 map to 0 (no).

See these solved cases before continuing.
is_below(cytochrome c release ratio, 1) for N[C@@H](Cc1c[nH]c2ccccc12)C(=O)O ?
1 (yes)

is_below(cytochrome c release ratio, 1) for Cc1ccc(/C(=C\CN2CCCC2)c2ccccn2)cc1 ?
0 (no)

is_below(cytochrome c release ratio, 1) for NCCCCN ?
1 (yes)

is_below(cytochrome c release ratio, 1) for O=C(/C=C/C=C/c1ccc2c(c1)OCO2)N1CCCCC1 ?
1 (yes)

is_below(cytochrome c release ratio, 1) for C[C@@H]1O[C@@H](O[C@H]2[C@H](Oc3cc(O)c4c(c3)O[C@H](c3ccc(O)cc3)CC4=O)O[C@H](CO)[C@@H](O)[C@@H]2O)[C@H](O)[C@H](O)[C@H]1O ?
0 (no)

Next:
is_below(cytochrome c release ratio, 1) for O=C1C=CC(=C(c2ccc(O)cc2)c2ccc(O)cc2)C=C1 ?
0 (no)

is_below(cytochrome c release ratio, 1) for CCOc1ccc2c(c1)C(C)=CC(C)(C)N2 ?
1 (yes)

is_below(cytochrome c release ratio, 1) for O=c1cc(-c2ccc(O)cc2)oc2cc(O)cc(O)c12 ?
0 (no)

is_below(cytochrome c release ratio, 1) for COc1c2ccoc2cc2oc(=O)ccc12 ?
0 (no)

is_below(cytochrome c release ratio, 1) for CC(=O)N[C@@H](CC(C)C)C(=O)O ?
0 (no)

====

- testDescription: antimalarial activity against Dd2 strain (AID 2302);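 also: 0% = DMSO untreated growth and 100% = chloroquine plus artemisinin killed control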
- testParameters: P. falciparum Dd2 in RBCs, LDH growth readout, 72 h; at 2 µM; stronger effect = higher value
The source made the active and inactive calls.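 Rule for the calls: active = growth inhibition above 50% at the single 2 µM test dose, taken to imply half-maximal potency below 2 µM; inactive = the rest.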
Consider the following compounds and their measured growth inhibition readings.

growth inhibition recorded for this compound, N#Cc1cccc(NC(=O)Nc2ccc(-c3cccc(-c4nc5ccc(F)cc5[nH]4)c3)cc2)c1 , is 100% (active)

growth inhibition recorded for this compound, CCc1cn(CC(=O)N(CCOc2ccc(-c3ccc(C(F)(F)F)cc3)cc2)CCN(CC)CC)c(SCc2ccc(F)cc2)nc1=O , is 29% (inactive)

Next:
growth inhibition recorded for this compound, CC(CCc1ccccc1)NCC(O)c1ccc2c(c1)S(=O)(=O)c1ccccc1N2 (stereo not drawn) , is 4% (inactive)

====

- testDescription: stimulators of nuclear beta-catenin in C2C12, primary screen, imaging, WNT3A-conditioned medium, mouse C2C12, NPC library (AID 1117326)
- testParameters: stimulation, at 2 µM, stronger effect = higher value
Consider the following compounds and their measured nuclear beta-catenin stimulation readings.
Form entry: value (%) — number only.

nuclear beta-catenin stimulation recorded for this compound, O=S(=O)(O)Oc1ccc(C(c2ccc(OS(=O)(=O)O)cc2)c2ccccn2)cc1 , is 1.7

nuclear beta-catenin stimulation recorded for this compound, Cc1ccc(Nc2c(F)cccc2Cl)c(CC(=O)O)c1 , is 3.4

nuclear beta-catenin stimulation recorded for this compound, COc1nc(N)nc2c1ncn2[C@@H]1O[C@H](CO)[C@@H](O)[C@@H]1O , is 0.8

Next:
nuclear beta-catenin stimulation recorded for this compound, OC(CCN1CCCCC1)(c1ccccc1)C1CC2C=CC1C2 (stereo unspecified) , is -0.7

nuclear beta-catenin stimulation recorded for this compound, NCCC(O)(P(=O)(O)O)P(=O)(O)O , is -0.1

nuclear beta-catenin stimulation recorded for this compound, Cc1cccc(C)c1NC(=O)CN1CCN(CCCC(c2ccc(F)cc2)c2ccc(F)cc2)CC1 , is 1.2

====

- testDescription: ovarian cancer cell viability with rucaparib, profiling panel, oncology-focused library, rucaparib conditional (AID 1508598)
- testParameters: patient-derived ovarian cancer cells, CellTiter-Glo viability, 144 h; at 0.000305 µM; OCI-P5x cells; with rucaparib 20 µM; 100% = cells with rucaparib alone
Active and inactive are the calls of the source.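 Rule for the calls: active = normalized viability below 100% at a tested concentration; inactive = the rest.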
// allowed return values: True for active, False for inactive

Identify the outcome logged in this assay for the molecule shown: CC/C(=C(\c1ccccc1)c1ccc(OCCN(C)C)cc1)c1ccccc1
True

Identify the outcome logged in this assay for the molecule shown: CNC(=O)c1cc(Oc2ccc(NC(=O)Nc3ccc(Cl)c(C(F)(F)F)c3)cc2)ccn1
False

Identify the outcome logged in this assay for the molecule shown: Nc1cccc2c1CN(C1CCC(=O)NC1=O)C2=O (stereo not given)
False

Identify the outcome logged in this assay for the molecule shown: O=C(CCCCCCC(=O)Nc1ccccc1)NO
True

Identify the outcome logged in this assay for the molecule shown: Cc1ccc(Nc2nccc(N(C)c3ccc4c(C)n(C)nc4c3)n2)cc1S(N)(=O)=O
True

====

- testDescription: Cy5 fluorescence interference with SSB-bound oligo, artefact control for HCV NS3 helicase inhibitor project, biochemical, NIH Clinical Collection, E. coli SSB (AID 743268)
The source made the active and inactive calls. No rule for the calls is given here.
// allowed return values: active, inactive

See these solved cases before continuing.
Identify the outcome logged in this assay for the molecule shown: CNCCC=C1c2ccccc2CCc2ccccc21
inactive

Identify the outcome logged in this assay for the molecule shown: O=[N+]([O-])c1cccc2cn[nH]c12
inactive

Identify the outcome logged in this assay for the molecule shown: CC1(C)SC2C(NC(=O)COc3ccccc3)C(=O)N2C1C(=O)O (centres undefined)
active

Below: the item to evaluate.
Identify the outcome logged in this assay for the molecule shown: O=C(O)CCc1nc(-c2ccccc2)c(-c2ccccc2)o1
inactive

====

Consider the following compounds and their measured period change readings.
- testDescription: circadian clock period modulators, cell-based, LOPAC library, luminescence reporter (AID 2774);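 also: values are relative to mean of DMSO wells on each plate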
- testParameters: circadian reporter cells, at 7 µM, actives lie on both sides
The source made the active and inactive calls. The rule behind the calls is not given here.

period change recorded for this compound, O=C(/C=C/c1ccc(O)cc1)c1ccc(O)cc1O , is 0.18 h (inactive)

period change recorded for this compound, Cc1cc(O)c2c(c1)C(=O)c1cc(O)cc(O)c1C2=O , is 0.05 h (inactive)

period change recorded for this compound, OCCN1CCN(CC/C=C2/c3ccccc3Sc3ccc(C(F)(F)F)cc32)CC1 , is -0.1 h (inactive)

period change recorded for this compound, Cc1ccc(=O)n(-c2ccccc2)c1 , is -0.085 h (inactive)

====

- testDescription: stimulators of insulin release from INS-1E, primary screen, cell-based, 5 mM glucose, NPC library (AID 1117329)
- testParameters: rat INS-1E insulin secretion, at 10 µM, stronger effect = higher value
readoutLabel: insulin secretion stimulation (%)
Form entry: value (%) — number only.

Below: 5 compounds and their reported insulin secretion stimulation.
insulin secretion stimulation recorded for this compound, CCCCCCCCCCCCCCCCCCCCCCO , is -2.5

insulin secretion stimulation recorded for this compound, CN(CCCCCCCCCCN(C)C(=O)Oc1cccc([N+](C)(C)C)c1)C(=O)Oc1cccc([N+](C)(C)C)c1 , is 2.2

insulin secretion stimulation recorded for this compound, CC(C)(C)CC(C)(C)c1ccc(OCCOCC[N+](C)(C)Cc2ccccc2)cc1 , is 4.2

insulin secretion stimulation recorded for this compound, COC(=O)C1=C(C)NC(C)=C(C(=O)OC(C)(C)CN(C)CCC(c2ccccc2)c2ccccc2)C1c1cccc([N+](=O)[O-])c1 (stereo unspecified) , is 1.3

insulin secretion stimulation recorded for this compound, CC(=O)Oc1cc(C(F)(F)F)ccc1C(=O)O , is 2.8

Next:
insulin secretion stimulation recorded for this compound, N=C(N=C(N)N)N1CCOCC1 , is -2.5

insulin secretion stimulation recorded for this compound, CC(C)Nc1cccnc1N1CCN(C(=O)c2cc3cc(NS(C)(=O)=O)ccc3[nH]2)CC1 , is -1.5

insulin secretion stimulation recorded for this compound, C[C@H]1O[C@H](O[C@H]2[C@H](O)[C@@H](O)[C@@H](O[C@H]3[C@H](O)[C@@H](O)[C@H](O)O[C@@H]3CO)O[C@@H]2CO)[C@H](O)[C@@H](O)[C@@H]1N[C@H]1C=C(CO)[C@@H](O)[C@H](O)[C@H]1O , is 0.7

insulin secretion stimulation recorded for this compound, CN1CCN(c2c(F)cc3c(=O)c(C(=O)O)cn(CCF)c3c2F)CC1 , is -1

insulin secretion stimulation recorded for this compound, O=C(O)[C@H](O)c1ccccc1 , is -0.6

insulin secretion stimulation recorded for this compound, C=CCCCCCCCCC(=O)OC , is 2.85

insulin secretion stimulation recorded for this compound, CNCCCC1c2ccccc2C=Cc2ccccc21 , is 1.7

insulin secretion stimulation recorded for this compound, OCC(CO)N[C@H]1C[C@](O)(CO)[C@@H](O)[C@H](O)[C@H]1O , is -1.5
